Molecular target: UniProt:Q60492
Sequence (Q60492 whole entry): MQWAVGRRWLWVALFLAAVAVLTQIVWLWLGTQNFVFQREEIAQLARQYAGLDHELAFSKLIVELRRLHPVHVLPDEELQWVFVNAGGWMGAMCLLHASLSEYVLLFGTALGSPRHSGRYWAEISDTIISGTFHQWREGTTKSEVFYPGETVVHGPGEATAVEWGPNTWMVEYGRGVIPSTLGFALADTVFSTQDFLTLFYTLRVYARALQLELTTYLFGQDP
Conditions: read-out: σ1 Ki
Hi there, I'd appreciate the recorded log10 of Ki for every entry that follows.
Record value = log10 of Ki given in µM.

Reference set, count: 6
{"columns": ["SMILES_REPR", "ASSAY_SYSTEM", "MEASUREMENT_NAME", "TEST_VALUE"],
 "data": [
  ["Clc1cccc(CN2CC[C@@H]3C[C@@H]2c2cc(N4CCCCC4)ccc23)c1", "UniProt:Q60492", "log10 of Ki", 0.55],
  ["CC(C)=CCN1CCN(c2ccc3c(c2)[C@H]2C[C@H]3CCN2C(=O)OCc2ccccc2)CC1", "UniProt:Q60492", "log10 of Ki", -1.21],
  ["C=CCCN1CCN(c2ccc3c(c2)[C@H]2C[C@H]3CCN2C(=O)OCc2ccccc2)CC1", "UniProt:Q60492", "log10 of Ki", -0.76],
  ["CN1CC[C@@H]2C[C@@H]1c1cc(-c3ccc(C(F)(F)F)cc3)ccc12", "UniProt:Q60492", "log10 of Ki", -0.81],
  ["C=CCOC(=O)N1CC[C@@H]2C[C@@H]1c1cc(N3CCN(C)CC3)ccc12", "UniProt:Q60492", "log10 of Ki", 0.32],
  ["Fc1ccccc1CN1CC[C@@H]2C[C@@H]1c1cc(N3CCOCC3)ccc12", "UniProt:Q60492", "log10 of Ki", 0.66]
]}

Please give log10 of Ki, item by item, for the list that follows.
1. CN1CCN(c2ccc3c(c2)[C@H]2C[C@H]3CCN2C(=O)CCc2ccccc2)CC1
2. c1ccc(CN2CC[C@@H]3C[C@@H]2c2cc(N4CCCCC4)ccc23)cc1
3. Cc1cccc(-c2ccc3c(c2)[C@H]2C[C@H]3CCN2C)c1
4. FC(F)(F)c1ccc(-c2ccc3c(c2)[C@H]2C[C@H]3CCN2CCc2ccccc2)cc1
5. Clc1cc(Cl)cc(CN2CC[C@@H]3C[C@@H]2c2cc(N4CCOCC4)ccc23)c1

(A)
-0.53
0.39
-0.41
0.03
0.47
